# System: M14 melanoma
Mark one answer only. Choices: 1.0 for active, 0.0 for inactive

query: Test call for this compound, please: CCOC(=O)c1ccc(N(CCOS(C)(=O)=O)CCOS(C)(=O)=O)cc1C
result: 0.0

query: Test call for this compound, please: O=C1c2cc3c(cc2-c2c1c1ccc(Cl)cc1c(=O)n2C[C@H](O)[C@@H](O)[C@H](O)CO)OCO3
result: 1.0

query: Please state the recorded outcome for this compound: Cc1cccc2c(N=Nc3ccc(S(N)(=O)=O)cc3)c(O)[nH]c12
result: 0.0

query: What did this assay record as the result for COc1ccc(/C(C)=C(\c2ccc(Cl)cc2)c2ccc(OCCN3CCCC3)cc2)cc1F ?
result: 0.0

query: Just curious, what result did S=c1nc2[nH]ncc2c(N/N=C/c2ccccc2)[nH]1 get here?
result: 0.0

###

# Tested on: U251 CNS
Mark one answer only. Choices: Yes = active, No = inactive

query: Test call for this compound, please: N.N.N.N.N.N.[I-].[Os]
result: No

query: Outcome logged for O=C(O)C1NCCc2c1[nH]c1ccccc21 (centres undefined) in this assay:
result: No

query: Hi, sorry to bother you, what did the test record for COC(=O)C(C)NP(=O)(OCc1ccc(Cn2cnc3c(=O)[nH]c(N)nc32)cc1)Oc1ccccc1 (centres undefined) ?
result: No

query: Test call, this compound: CCOC(=O)c1c(C)nc2ccc(Cl)cc2c1-c1ccccc1
result: No

query: Can you look up the reported call for COc1ccc(/C(C)=C(\c2ccc(Cl)cc2)c2ccc(OCCN3CCCC3)cc2)cc1F for me?
result: No

query: What outcome does the record of this test show for CCN(CC)CCOc1ccc(/C(=C(\C)Cc2ccc(OC)cc2)c2ccc(OC(=O)NCc3ccccc3)cc2)cc1 ?
result: No

query: Called result for COc1cc2ccc3c4c(OC)cc(OC)c(OC)c4c(=O)n(C)c3c2cc1OC
result: Yes

query: Dear all, I need the recorded test outcome for O=C(O)c1ccc2c(c1Nc1ccccc1)C(=O)c1ccccc1C2=O , thank you.
result: No

query: Could you kindly confirm the outcome this assay logged for CCOC(=O)c1ccc(N(CCOS(C)(=O)=O)CCOS(C)(=O)=O)cc1C ?
result: No

###

# Tested on: OVCAR-5 ovarian
# experimentalProtocol: NCI tumour cell line growth inhibition, 48 h
Provide the recorded TGI for the entries that follow.

query: Suppose we examine the compound Nc1ccc2c(c1)C(=O)N(O)C2=O ; what TGI value has been reported?
result: > 100 µM

query: // TGI lookup, key: CN(C)C(=O)/N=c1\ss/c(=N\C(=S)N(C)C)n1-c1ccccc1
result: > 100 µM

query: Which TGI value is on record for Cc1cccc2c(N=Nc3ccc(S(N)(=O)=O)cc3)c(O)[nH]c12 ?
result: > 25 µM

query: Quick one: TGI of Cn1c(=O)c2c(no[n+]2[O-])n(C)c1=O ?
result: > 100 µM

query: Give its TGI value. Item: O=c1cc(-c2ccc(Cl)cc2)[nH]c2ncccc12
result: > 100 µM

query: Item O=c1c2ccccc2nc(-c2ccc(Br)cc2)n1NC1OC(CO)C(O)C(O)C1O (stereo unspecified) has what recorded TGI?
result: > 100 µM

###

# System: HT29 colon
# experimentalProtocol: NCI tumour cell line growth inhibition, 48 h
endpointName: TGI

query: Look up TGI: COC(=O)[C@@H]1C[C@H]([Se]c2ccccc2)CN1S(=O)(=O)c1ccc(C)cc1
result: > 100 µM

query: Look up TGI for this molecule: Cc1oc2c(C)c(O)c3c(c2c1C1(C)OCCO1)C(=O)C=C(Cl)C3=O
result: > 100 µM

query: Suppose we examine the molecule ClC1CCC2OOC1O2 (stereo not drawn) ; what TGI value has been reported?
result: > 100 µM
